Target: Mouse ER α-glucosidase I (Mus musculus)
Construct: gene Mogs
Sequence (Q80UM7 whole entry): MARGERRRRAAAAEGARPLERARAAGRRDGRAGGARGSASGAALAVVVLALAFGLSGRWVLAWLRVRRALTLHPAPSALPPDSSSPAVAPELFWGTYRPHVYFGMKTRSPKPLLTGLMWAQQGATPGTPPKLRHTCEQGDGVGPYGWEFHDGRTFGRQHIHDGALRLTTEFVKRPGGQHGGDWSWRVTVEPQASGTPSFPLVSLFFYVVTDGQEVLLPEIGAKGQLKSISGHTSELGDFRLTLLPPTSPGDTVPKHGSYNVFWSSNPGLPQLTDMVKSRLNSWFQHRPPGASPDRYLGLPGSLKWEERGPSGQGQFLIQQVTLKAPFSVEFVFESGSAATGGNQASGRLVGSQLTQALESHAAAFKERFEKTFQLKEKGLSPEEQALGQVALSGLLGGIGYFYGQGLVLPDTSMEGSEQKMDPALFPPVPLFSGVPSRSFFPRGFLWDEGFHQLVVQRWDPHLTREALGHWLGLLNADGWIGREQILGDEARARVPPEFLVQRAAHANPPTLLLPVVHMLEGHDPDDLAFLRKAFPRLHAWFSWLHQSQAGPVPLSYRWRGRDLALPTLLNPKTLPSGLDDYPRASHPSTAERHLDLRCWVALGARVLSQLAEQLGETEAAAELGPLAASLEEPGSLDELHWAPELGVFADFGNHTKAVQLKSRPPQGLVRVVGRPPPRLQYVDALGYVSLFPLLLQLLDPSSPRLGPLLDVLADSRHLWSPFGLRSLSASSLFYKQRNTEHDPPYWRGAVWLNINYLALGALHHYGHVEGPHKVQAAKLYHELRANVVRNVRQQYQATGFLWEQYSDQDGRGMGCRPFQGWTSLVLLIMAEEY
Experiment: enzyme inhibition assay, purified enzyme
Type: biochemical
Conditions: read-out: IC50 ^a / MON-6d-DGJ
Measured parameter: IC50

// recorded IC50 for "COCCCCCCCCCN1C[C@H](O)[C@@H](O)[C@@H](O)[C@H]1C" : > 1050 µM
